test system: HOP-92 NSCLC; assay: NCI tumour cell line growth inhibition, 48 h
Measured Property: log10(TGI) (log10 of the value in µM)

{"columns": ["Molecule", "Result Number"],
 "data": [
  ["COc1cc(/C=C/C=C2\\CCC/C(=C\\C=C\\c3ccc(O)c(OC)c3)C2=O)ccc1O", 1.65],
  ["Cc1cc(O)c(C2=NN(c3ccc(S(N)(=O)=O)cc3)C(c3ccccc3O)C2)cc1Cl (stereo unspecified)", 0.81],
  ["CCN1/C(=C/C=C/C=C/c2sc3ccccc3[n+]2CC)Sc2ccccc21", 0.51],
  ["CN(C)CCNC(=O)c1cccc2cc([N+](=O)[O-])ccc12", 0.13],
  ["O=Nc1ccc(O)c2ncccc12", 1.08]
]}

---

Item-by-item account of TGI
test system: HT29 colon; assay: NCI tumour cell line growth inhibition, 48 h

{"columns": ["Molecular String", "Censoring Operator", "TGI (µM)"],
 "data": [
  ["Cc1cc(Cl)ccc1NC(=O)C(=O)Cc1ccc([N+](=O)[O-])c([N+](=O)[O-])c1CC(=O)C(=O)Nc1ccc(Cl)cc1C", ">", 100],
  ["COc1ccc(/C=N/NC(=O)c2ccccc2Nc2ccccc2C(=O)N/N=C/c2ccc(OC)cc2)cc1", ">", 100],
  ["O=c1oc2ccccc2cc1-c1csc(Nc2cc(Cl)cc(Cl)c2)n1", "=", 14.2],
  ["COc1cc(CNc2nc3ccccc3n2Cc2ccccc2)cc(CN2CCOCC2)c1O", "=", 70.4],
  ["NCCn1ccc(NC(c2ccccc2)(c2ccccc2)c2ccccc2)nc1=O", "=", 31.1]
]}

---

test system: MCF7 breast; experiment: NCI tumour cell line growth inhibition, 48 h
Measured Property: TGI

{"columns": ["Molecule", "Result"],
 "data": [
  ["COc1ccc2c(c1)CCC(CN1CCN(CCOC(c3ccc(F)cc3)c3ccc(F)cc3)CC1)C2O (configuration not stated)", "39.7 µM"],
  ["CCNc1nc(N)c(C(=O)c2cccs2)s1", "> 100 µM"],
  ["CCN(CC)CCOc1ccc(N2Cc3ccccc3C2=O)cc1", "> 10 µM"],
  ["c1cc2[nH]snc2c2cncc12", "> 100 µM"],
  ["O=C1NC(=O)[C@@H](OCC2CCCCC2)[C@@H]2OCC3OC(C(O)C3O)C12 (some centres not stated)", "> 100 µM"],
  ["CN(C)CCNC(=O)c1cccc2cc([N+](=O)[O-])ccc12", "15.3 µM"],
  ["CNS(=O)(=O)c1ccccc1C(=N)c1ccccc1", "> 100 µM"],
  ["O=C(CCc1ccco1)NC1CCN(CC2(c3ccc(Cl)cc3)CCC2)CC1", "26.7 µM"],
  ["COc1ccc2[nH]c3c([N+](=O)[O-])ccc(Cl)c3c(=O)c2c1", "> 84.8 µM"],
  ["COC(=O)c1ccc(/C=C2\\Cc3ccccc3C2=O)cc1", "> 100 µM"],
  ["OC1CSCCCSCCSCCCSC1", "> 100 µM"],
  ["O=c1c2[nH]c3ccccc3c2nc2n1CCS2", "> 100 µM"]
]}

---

TGI by entry:
tested on: SF-268 CNS; experiment: NCI tumour cell line growth inhibition, 48 h

{"columns": ["Compound", "TGI"],
 "data": [
  ["O=C(/C=c1\\oc(=O)/c(=C/C(=O)c2ccc(Cl)cc2)oc1=O)c1ccc(Cl)cc1", "> 100 µM"],
  ["O=S(=O)(O)c1cc(N=Nc2cc(S(=O)(=O)O)c3ccccc3c2O)ccc1/C=C/c1ccc(N=Nc2cc(S(=O)(=O)O)c3ccccc3c2O)cc1S(=O)(=O)O", "> 1000 µM"],
  ["Nc1ccc(OCC(O)N2C(=O)c3ccccc3C2=O)cc1 (centres undefined)", "> 100 µM"],
  ["Cc1cc2c(=O)cc(-c3ccc(C(F)(F)F)cc3)oc2c(C(=O)O)c1C", "> 100 µM"],
  ["CC(NC1=NCCO1)c1cccs1 (centres undefined)", "69.9 µM"],
  ["COC(=O)/C(=N\\N)C(C(=O)C(=O)Nc1cccc([N+](=O)[O-])c1)c1nc2ccc(C(=O)c3ccccc3)cc2[nH]c1=O (centres undefined)", "> 100 µM"],
  ["CN1CCC(C(=O)NNc2ccccc2)CC1", "> 100 µM"],
  ["FC(F)(F)c1ccc2c(c1)nc(Cc1ccc(Cl)c(Cl)c1)n2CC1CCCN2CCCCC12 (centres undefined)", "> 100 µM"],
  ["COc1cc2c(cc1OC)C(=O)Cc1ccc3c(c1CNCC2)OCO3", "> 100 µM"]
]}

Numbers sourced from PubChem BioAssay (NCI).
